measurementKind: melting point

Please supply the value of reported melting point for the item `CC/C=C(\CCC)c1c2cccc(-c3ccc(Cl)cc3Cl)c2nn1C.Cl`
148 to 150 °C

Please report the measured melting point for Cn1nc2c(-c3ccc(Cl)cc3Cl)cccc2c1S(C)(=O)=O [D-2]
182.1 to 183.4 °C

Query melting point for `CNCc1c2cccc(-c3ccc(Cl)cc3Cl)c2nn1C.Cl`
211.1 to 213 °C

Tell us which melting point value is on record for `COc1ccc(-c2cccc3c(N(C)C)n(C)nc23)c(C)c1.Cl`
166 to 167 °C

Give the reported melting point for this compound. Cn1nc2c(-c3ccc(Cl)cc3Cl)cccc2c1S(N)(=O)=O [D3]
170.7 to 173.6 °C

Read the entry Cn1nc2c(-c3ccc(Cl)cc3Cl)cccc2c1CNC(=O)N1CCOCC1 [C11] and write its reported melting point.
98.8 to 104.5 °C
